# protocolDetails: Hepatic Stability Assay (in vitro half-life method)
# Format: in vitro ADME
# Parameters: dose or concentration left out as unconfirmed
# assayConditions: pooled cryopreserved hepatocytes, 37° C., 1×10^6 cells/mL, 0-6 hours, LC-MS/MS, 39.5 hours is the maximum detectable half life, read-out: t½ (converted)
assayReadout: half-life (h)
Hi! Could you send only the number? It should be in h, unit omitted.

Quick one: half-life of Cc1c(C(=O)C(=O)NC2(C)C[S+]([O-])C2)c2n(c1C(=O)Nc1ccc(F)c(F)c1)CCC2 (stereo not shown) ?
9.7

Quick one: half-life of `CNC(=O)C1(NC(=O)C(=O)c2c(C)c(C(=O)Nc3ccnc(C(F)F)c3F)n3c2CCC3)CC(F)(F)C1` ?
24.8

Quick one: half-life of `Cc1c(C(=O)C(=O)NC2(CNC3(C)CS(=O)(=O)C3)CC(F)(F)C2)c2n(c1C(=O)Nc1ccc(F)c(Cl)c1)CCC2` ?
0.4

Quick one: half-life of `Cc1c(C(=O)C(=O)NC2(C(=O)N3CCC34COC4)CC(F)(F)C2)c2n(c1C(=O)Nc1ccc(F)c(Cl)c1)CCC2` ?
0.7

Quick one: half-life of `Cc1c(C(=O)C(=O)NC2(c3c[nH]nn3)CC(F)(F)C2)c2n(c1C(=O)Nc1ccc(F)c(Cl)c1)CCC2` ?
16.1

Quick one: half-life of `Cc1c(C(=O)C(=O)NC2(c3c[nH]nn3)CC2)c2n(c1C(=O)Nc1cc(F)cc(C#N)c1)CCC2` ?
10.7

Quick one: half-life of `Cc1c(C(=O)C(=O)NC2(c3c[nH]nn3)CC2)c2n(c1C(=O)Nc1ccc(F)c(F)c1)CCC2` ?
16

###

# Tested on: pooled cryopreserved hepatocytes
# protocolDetails: Hepatic Stability Assay (in vitro half-life method)
# Type: in vitro ADME
# Parameters: dose or concentration left out as unconfirmed
# assayConditions: 37° C., 1×10^6 cells/mL, 0-6 hours, LC-MS/MS, 39.5 hours is the maximum detectable half life
Catalogue of compounds with associated t½
Hi! Could you send only the number? It should be in h, unit omitted.

Solved entries:
Quick one: t½ of `Cc1c(C(=O)C(=O)NC2(c3c[nH]nn3)CC2)c2n(c1C(=O)Nc1ccnc(C(F)F)c1)[C@@H]1C[C@@H]1C2` ?
39.5

Quick one: t½ of `CNC(=O)C1(NC(=O)C(=O)c2c(C)c(C(=O)Nc3ccc(F)c(F)c3)n3c2C[C@@H](F)C3)CC(F)(F)C1` ?
39.5

Quick one: t½ of `CNC(=O)C1(NC(=O)C(=O)c2c(C)c(C(=O)Nc3ccc(F)cc3)n3c2CCC3)CC(F)(F)C1` ?
39.5

Quick one: t½ of `CNC(=O)C1(NC(=O)C(=O)c2c(C)c(C(=O)Nc3ccc(F)c(F)c3)n3c2CCC3)CC(F)(F)C1` ?
39.5

Quick one: t½ of `CNC(=O)C1(NC(=O)C(=O)c2c(C)c(C(=O)Nc3ccc(F)c(C#N)c3)n3c2CCC3)CC(F)(F)C1` ?
39.5

Others:
Quick one: t½ of CNC(=O)C1(NC(=O)C(=O)c2c(C)c(C(=O)Nc3ccc(F)c(Cl)c3)n3c2CCC3C)CC(F)(F)C1 (single isomer, unassigned) [Example 23] ?
9.6

Quick one: t½ of `CNC(=O)C1(NC(=O)C(=O)c2c(C)c(C(=O)Nc3cccc(C(F)F)c3)n3c2CCC3)CC(F)(F)C1` ?
39.5
